Ref: patent US20230265198A1

target: T1, neuropilin-1 (NRP1) on HEK293 cells overexpressing NRP1 (UniProt O14786 22-923, limits assumed); test: flow cytometry, HEK293-NRP1 vs HEK293
T1 construct: whole, on cells
Assign 100 nM FACS (MFI Ratio) to each entry below.
Give bare numbers.

Solved cases below.
binder	100 nM FACS (MFI Ratio)
NRP1-20 (VHH) VHH: EVQLVESGGGLVQPGGSLRLSCAASGSTFSLFAMGWFRQAPGKEREFVAAISRSGGLTSYADSVKGRFTISADNSKNTAYLQMNSLKPEDTAVYYCAKAAGDWTYDEDYYYMDVWGQGTLVTVSS	50.9
NRP1-214 (antibody, IgG2, V domains shown) VH: EVQLLESGGGLVQPGGSLRLSCAASGFTFTTYGMSWVRQAPGKGLEWVSAISGSGGTTYYADSVKGRFTISRDNSKNTLYLQMNSLRAEDTAVYYCARVGPGRSIAARQGFKRRNNWFDPWGQGTLVTVSS VL: DIQMTQSPSSLSASVGDRVTITCRASQSVSTSLNWYQQKPGKAPKLLIYGASRLQTGVPSRFSGSGSGTDFTLTISSLQPEDFATYYCQQTYSSPRTFGGGTKVEIK	1

Next, consider the following binder.
Input NRP1-252 (antibody, IgG2, V domains shown) VH: EVQLLESGGGLVQPGGSLRLSCAASGFTFRSLAVSWVRQAPGKGLEWVSTITGSGGATYYADSVKGRFTISRDNSKNTLYLQMNSLRAEDTAVYYCARGRRGMPTPDTVRKMSKSHLYFDSWGQGTLVTVSS VL: DIQMTQSPSSLSASVGDRVTITCRARQSISTYLNWYQQKPGKAPKLLIYSASTLESGVPSRFSGSGSGTDFTLTISSLQPEDFATYYCQQSYRTPWTFGGGTKVEIK , output reported 100 nM FACS (MFI Ratio).
1
